Target: Glucose-6-phosphate 1-dehydrogenase (Homo sapiens, UniProt P11413)
Sequence (P11413 whole entry): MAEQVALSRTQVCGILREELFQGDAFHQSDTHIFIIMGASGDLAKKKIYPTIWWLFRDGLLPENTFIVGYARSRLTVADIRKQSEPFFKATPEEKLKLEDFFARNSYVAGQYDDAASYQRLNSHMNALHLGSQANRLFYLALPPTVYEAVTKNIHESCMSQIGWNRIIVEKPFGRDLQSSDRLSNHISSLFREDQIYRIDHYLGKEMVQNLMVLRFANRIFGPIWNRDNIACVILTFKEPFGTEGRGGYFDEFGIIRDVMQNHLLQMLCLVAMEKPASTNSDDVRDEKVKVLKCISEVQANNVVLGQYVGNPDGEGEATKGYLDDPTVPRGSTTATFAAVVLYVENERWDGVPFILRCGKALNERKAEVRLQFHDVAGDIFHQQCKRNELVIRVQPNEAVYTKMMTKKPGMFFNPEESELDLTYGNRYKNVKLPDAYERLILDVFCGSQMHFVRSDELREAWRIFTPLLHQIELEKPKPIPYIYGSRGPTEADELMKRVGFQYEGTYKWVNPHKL
Assay: Activation of G6PD (unknown origin) expressed in Escherichia coli C43(DE3) cells using G6P as substrate in presence of NADP+ by resazurin dye-based assay
QUANTITY KIND: EC50 (µM)
Your answer is read as µM, so omit the unit and give the number.

Please tell me: EC50 of c1ccc2c(CCNCCSSCCNCCc3c[nH]c4ccccc34)c[nH]c2c1 , system Glucose-6-phosphate 1-dehydrogenase (Homo sapiens, UniProt P11413)?
0.8

----------
Test system: SUM-159-PT
Assay: cells
Conditions: Homo sapiens, 72 h
Description: Antiproliferative activity against human SUM159 cells assessed as inhibition of cell growth incubated for 72 hrs by Hoechst stain-based assay
QUANTITY KIND: IC50 (nM)
// note: answer is a bare numeric in nM

Please state recorded IC50 (tested on SUM-159-PT) of N#Cc1cccc(CN2CCc3ncn(Cc4ccc(Cl)cc4)c(=O)c3C2)c1
12
